Biological target: recombinant protein containing hST2 extracellular domain with human antibody heavy chain Fc tag (hST2-ECD-hFc) (human)
Sequence (chain, as listed by the source limits assumed): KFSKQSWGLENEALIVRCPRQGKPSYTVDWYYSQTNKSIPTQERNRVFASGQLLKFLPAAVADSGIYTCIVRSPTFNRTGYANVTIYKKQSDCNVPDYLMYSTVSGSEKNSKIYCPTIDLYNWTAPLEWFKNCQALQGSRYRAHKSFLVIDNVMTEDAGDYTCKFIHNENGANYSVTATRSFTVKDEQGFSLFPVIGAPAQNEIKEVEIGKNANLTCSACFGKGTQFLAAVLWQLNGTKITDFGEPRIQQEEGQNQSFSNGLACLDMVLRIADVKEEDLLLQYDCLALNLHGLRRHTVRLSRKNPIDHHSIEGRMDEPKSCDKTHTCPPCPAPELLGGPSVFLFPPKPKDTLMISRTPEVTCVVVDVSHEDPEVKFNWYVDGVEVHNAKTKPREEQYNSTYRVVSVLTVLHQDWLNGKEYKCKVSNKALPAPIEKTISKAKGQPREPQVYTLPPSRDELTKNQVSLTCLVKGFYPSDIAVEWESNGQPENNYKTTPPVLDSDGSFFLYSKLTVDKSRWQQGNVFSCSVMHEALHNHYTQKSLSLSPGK
Experiment: competition ELISA, coated hST2-ECD-hFc, antibody then biotin-labeled hIL33 Avitag (competitor)
Recorded pIC50, one value per entry.
// field semantics: pIC50 = negative decimal log of concentration (mol/L)

BINDER: Chimeric 17E2 (antibody, human IgG2, kappa, V domains shown, also called xi17E2) VH: QVQLQQSGAELVRPGASVTLSCKASGYTFTDYEMHWVKQTPVLGLEWIGAIDPETGDTAYNQKFKGKATLTADKSSSTAYMELSSLASEDSAVYYCIRVDSNYDYFDYWGQDTTLTVSS VL: DIVLTQSPPILSASPGEKVTMTCRASSSVSYMHWYQQKPGSSPKPWIYDTSNLASGVPARFSGSGSGTSYSLTISRVEAEDAATYYCQQWSSNPLTFGAGTKLELKR
VAL: 8.48
//
BINDER: Chimeric 31C8 (antibody, human IgG2, kappa, V domains shown, also called xi31C8) VH: QVQLQQSGPELVRPGASVTLSCKASGYIFIDSEMHWVKQTPVHGLEWIGAIDPETGDTVYNQKFKGKATLTADKSSSTASMELSSLTSEDSAVYYCTGSTTDYYFAYWGQGTTLTVSS VL: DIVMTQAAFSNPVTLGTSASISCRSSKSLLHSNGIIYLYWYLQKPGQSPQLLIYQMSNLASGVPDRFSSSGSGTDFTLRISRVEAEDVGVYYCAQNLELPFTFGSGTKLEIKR
VAL: 8.60

Moving on to another binder below.
// pIC50 lookup, binder = Chimeric 7D1 (antibody, human IgG2, kappa, V domains shown, also called xi7D1) VH: QVQLQQSGAELVRPGASVTLSCKASGYTFTDYEMHWVKQTPVHGLDWIGTIDPETGDTAYNQKFKGRATLTADKSSSTAYMELSSLTSEDSAVYYCTRYSYTNSPYGMDYWGQGTSVTVSS VL: DVVMTQTPKFLLVSAGDRVTITCKASQSVSNDVAWYQQKPGQSPKLLIYYASNRYTGVPDRFTGSGYGTDFTFTINTVQAEDLAVYFCQQDYSSPYTFGGGTKLEIKR , result: 8.54
